target: Protein O-GlcNAcase (Homo sapiens)
Sequence (O60502 whole entry): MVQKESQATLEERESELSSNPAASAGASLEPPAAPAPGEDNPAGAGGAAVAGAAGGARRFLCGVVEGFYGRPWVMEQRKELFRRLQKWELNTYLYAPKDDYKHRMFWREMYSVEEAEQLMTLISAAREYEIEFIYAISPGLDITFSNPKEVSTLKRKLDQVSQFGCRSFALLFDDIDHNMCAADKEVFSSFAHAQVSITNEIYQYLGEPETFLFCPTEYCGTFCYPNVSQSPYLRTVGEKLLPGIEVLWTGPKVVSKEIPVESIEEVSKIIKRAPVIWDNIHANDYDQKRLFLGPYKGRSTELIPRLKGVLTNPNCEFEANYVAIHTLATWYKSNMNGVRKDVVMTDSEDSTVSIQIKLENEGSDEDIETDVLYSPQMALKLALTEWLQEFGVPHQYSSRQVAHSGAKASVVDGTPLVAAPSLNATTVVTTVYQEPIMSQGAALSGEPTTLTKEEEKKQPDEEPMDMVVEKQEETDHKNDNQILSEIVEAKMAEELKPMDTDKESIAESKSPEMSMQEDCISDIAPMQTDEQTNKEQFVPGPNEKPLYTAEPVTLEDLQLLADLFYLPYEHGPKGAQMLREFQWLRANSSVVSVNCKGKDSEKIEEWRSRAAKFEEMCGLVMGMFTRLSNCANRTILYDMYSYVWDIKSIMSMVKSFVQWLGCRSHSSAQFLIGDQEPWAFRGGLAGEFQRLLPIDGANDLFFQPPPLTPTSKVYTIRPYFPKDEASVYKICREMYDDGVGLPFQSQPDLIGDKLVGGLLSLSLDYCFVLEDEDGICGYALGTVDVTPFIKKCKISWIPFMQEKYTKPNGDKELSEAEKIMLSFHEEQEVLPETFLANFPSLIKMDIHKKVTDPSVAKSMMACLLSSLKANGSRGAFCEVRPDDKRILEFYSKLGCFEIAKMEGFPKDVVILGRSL
measured-metric: pIC50
Scale: negative log10 of molar concentration, which is what pIC50 denotes.

Inquiry: Using the record for COC(=O)Nc1ncc(CN2CCC(c3ccccc3)CC2)s1 , report its pIC50.
Reply text: 6.00

----------
target: Protein O-GlcNAcase (Rattus norvegicus, UniProt Q8VIJ5); assay: Inhibition of OGA in rat B35 cells after 16 hrs
Sequence (Q8VIJ5 whole entry): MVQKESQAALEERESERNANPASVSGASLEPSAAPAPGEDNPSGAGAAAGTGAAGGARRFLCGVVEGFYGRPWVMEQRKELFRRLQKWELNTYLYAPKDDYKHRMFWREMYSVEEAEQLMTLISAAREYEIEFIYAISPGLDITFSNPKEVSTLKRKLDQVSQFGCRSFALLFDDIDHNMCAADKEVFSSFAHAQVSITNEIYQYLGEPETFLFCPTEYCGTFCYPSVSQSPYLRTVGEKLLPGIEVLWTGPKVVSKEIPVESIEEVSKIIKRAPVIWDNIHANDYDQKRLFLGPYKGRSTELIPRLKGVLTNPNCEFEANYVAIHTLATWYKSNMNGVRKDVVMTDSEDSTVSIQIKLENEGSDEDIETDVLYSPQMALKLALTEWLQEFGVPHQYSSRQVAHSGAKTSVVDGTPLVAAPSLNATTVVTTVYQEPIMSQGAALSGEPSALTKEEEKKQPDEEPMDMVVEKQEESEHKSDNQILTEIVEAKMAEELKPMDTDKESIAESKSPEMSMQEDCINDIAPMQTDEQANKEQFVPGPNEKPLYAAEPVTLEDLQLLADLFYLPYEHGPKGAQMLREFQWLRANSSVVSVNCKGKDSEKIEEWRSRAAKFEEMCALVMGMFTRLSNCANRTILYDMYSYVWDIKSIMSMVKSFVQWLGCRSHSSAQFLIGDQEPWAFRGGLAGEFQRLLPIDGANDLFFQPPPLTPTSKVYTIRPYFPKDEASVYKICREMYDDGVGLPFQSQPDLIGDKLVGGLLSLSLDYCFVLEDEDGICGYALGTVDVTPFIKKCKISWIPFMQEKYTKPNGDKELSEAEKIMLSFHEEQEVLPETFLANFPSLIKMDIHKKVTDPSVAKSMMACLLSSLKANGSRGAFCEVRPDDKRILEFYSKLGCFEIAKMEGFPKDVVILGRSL
Reported EC50 values follow for various compounds
Please reply with the bare figure in nM and do not write the unit itself.

Recorded EC50, per entry:
- smi: "CC(=O)Nc1ncc(CN2CCC(c3ccccc3)CC2)s1"
  measured-target: "Protein O-GlcNAcase (Rattus norvegicus, UniProt Q8VIJ5)"
  EC50 [nM]: 200
- smi: "COC(=O)Nc1ncc(CN2CCC(c3ccccc3)CC2)s1"
  measured-target: "Protein O-GlcNAcase (Rattus norvegicus, UniProt Q8VIJ5)"
  EC50 [nM]: 10000

Inquiry: Reported EC50, compound CC(=O)Nc1ncc(CN2CCC(F)(c3ccccc3)CC2)s1 : ____
Reply text: 1000
